activity coefficient reference
# TEST METHOD NOTES: activity coefficient (dimensionless); of the first substance listed, at infinite dilution; xn = mol fraction of the nth substance listed
# RECORDED CONDITIONS: 323.14 K; 101 kPa; Liquid; dilutor technique; x1 = 0

{"COMPOUND": "C=CCCCCC [1-heptene] + CCCCCCCCn1cc[n+](C)c1.O=S(=O)([O-])C(F)(F)F", "activity coefficient": 5.97}
{"COMPOUND": "CCCCCCC [heptane] + CCCCCCCCn1cc[n+](C)c1.O=S(=O)([O-])C(F)(F)F", "activity coefficient": 9.26}
{"COMPOUND": "CCCCCCCC [octane] + CCCCCCCCn1cc[n+](C)c1.O=S(=O)([O-])C(F)(F)F", "activity coefficient": 12}
{"COMPOUND": "C=CCCCCCC [oct-1-ene] + CCCCCCCCn1cc[n+](C)c1.O=S(=O)([O-])C(F)(F)F", "activity coefficient": 7.79}

###

# TEST METHOD NOTES: activity coefficient (dimensionless); of the first substance listed, at infinite dilution; xn = mol fraction of the nth substance listed
# RECORDED CONDITIONS: 313.15 K; 101 kPa; Liquid; Chromatography; x1 = 0
This listing pairs compounds with measured activity coefficient.
METRIC NAME: activity coefficient

{"COMPOUND": "CCCCCCCC [octane] + CCCCCCn1cc[n+](C)c1.O=S(=O)([O-])C(F)(F)F", "METRIC NAME": "activity coefficient", "VALUE MEASURED": 25.8}
{"COMPOUND": "CCCCCC [hexane] + CCCCn1cc[n+](C)c1.O=S(=O)([O-])C(F)(F)F", "METRIC NAME": "activity coefficient", "VALUE MEASURED": 28.4}
{"COMPOUND": "CCCCCCC [heptane] + CCCCn1cc[n+](C)c1.O=S(=O)([O-])C(F)(F)F", "METRIC NAME": "activity coefficient", "VALUE MEASURED": 42.4}
{"COMPOUND": "C=CCCC [1-pentene] + CCCCn1cc[n+](C)c1.O=S(=O)([O-])C(F)(F)F", "METRIC NAME": "activity coefficient", "VALUE MEASURED": 9.69}

###

# TEST METHOD NOTES: activity coefficient (dimensionless); of the first substance listed, at infinite dilution; xn = mol fraction of the nth substance listed
# RECORDED CONDITIONS: 333.15 K; 101 kPa; Liquid; Chromatography; x1 = 0
METRIC NAME: activity coefficient

{"COMPOUND": "C=CCCCCCC [oct-1-ene] + CCCCn1cc[n+](C)c1.O=S(=O)([O-])C(F)(F)F", "METRIC NAME": "activity coefficient", "VALUE MEASURED": 29.3}
{"COMPOUND": "CCCCCCCC [octane] + CCCCn1cc[n+](C)c1.O=S(=O)([O-])C(F)(F)F", "METRIC NAME": "activity coefficient", "VALUE MEASURED": 55.2}
{"COMPOUND": "C=CCCCCC [1-heptene] + CCCCn1cc[n+](C)c1.O=S(=O)([O-])C(F)(F)F", "METRIC NAME": "activity coefficient", "VALUE MEASURED": 19.9}
{"COMPOUND": "CCCCCCC [heptane] + CCCCn1cc[n+](C)c1.O=S(=O)([O-])C(F)(F)F", "METRIC NAME": "activity coefficient", "VALUE MEASURED": 37}
{"COMPOUND": "C=CCCC [1-pentene] + CCCCn1cc[n+](C)c1.O=S(=O)([O-])C(F)(F)F", "METRIC NAME": "activity coefficient", "VALUE MEASURED": 9.18}
{"COMPOUND": "CCCCCC [hexane] + CCCCn1cc[n+](C)c1.O=S(=O)([O-])C(F)(F)F", "METRIC NAME": "activity coefficient", "VALUE MEASURED": 24.8}

All values here come from the NIST ThermoML archive (doi:10.1016/j.fluid.2010.02.010).
